# Test system: Scirpus juncoides
# MEASUREMENT_DESCRIPTION: Submerged foliar treatment test (Test Example 3)
# Assay type: in vivo
# CONDITIONS: water depth 3 cm, cotyledon to 1-leaf stage, wettable powder, active ingredient 10 g/a, 28th day from the treatment
Entries and their Herbicidal effect Scirpus juncoides (herbicidal index) values follow.

Cc1cc2c(-c3cccc(Cl)c3)nc(Cl)nc2s1 [Compound No. 5-15]; 3 (51 to 70)
CCOc1nc(-c2sccc2C)c2cc(C)sc2n1 [6-50]; 3 (51 to 70)
CCOc1nc(-c2cccc(C(F)(F)F)c2)c2cc(C)sc2n1 [6-24]; 4 (71 to 90)
Cc1cc2c(-c3cccc(OC(F)(F)F)c3)nc(Cl)nc2s1 [5-9]; 4 (71 to 90)

Documented Herbicidal effect Scirpus juncoides (herbicidal index) of CCCOc1nc(-c2cccc(OC)c2)c2cc(C)sc2n1 [6-62] : 5 (91 to 100)

Query Cc1cc2c(Oc3cccc(C(F)(F)F)c3)nc(OCC(F)(F)F)nc2s1 [Compound No. 6-129] yields Herbicidal effect Scirpus juncoides (herbicidal index) of 2 (31 to 50)

Noted for CCCOc1nc(-c2cccc(C(F)(F)F)c2)c2cc(CC)sc2n1 [6-8] : its Herbicidal effect Scirpus juncoides (herbicidal index) reads 4 (71 to 90)

Kindly note the recorded Herbicidal effect Scirpus juncoides (herbicidal index) for CCCOc1nc(-c2ccccc2Cl)c2cc(C)sc2n1 [6-56] , which is 4 (71 to 90)

Record CCCCCOc1nc(-c2ccccc2C)c2cc(C)sc2n1 [6-47] , field Herbicidal effect Scirpus juncoides (herbicidal index): 1 (6 to 30)

Briefly, Herbicidal effect Scirpus juncoides (herbicidal index) measured for Cc1cc2c(-c3cccc(Cl)c3)nc(OC3CCCC3)nc2s1 [6-54] : 4 (71 to 90)
